biological target: mouse recombinant His-calmodulin (mouse), P0DP26
Endpoint: pKd
Convention used: pKd is expressed as -log10 of the molar concentration.

Note pKd for the binder shown: INLKALAALAKKIL (modifications not checked) [Mastoparan, P01514 1-14] 8.92

Where do the numbers come from? From patent EP4036575A1.
